// each record: one item and its pIC50 for Translocator protein (Homo sapiens)
Here pIC50 is given on a logarithmic scale as minus log10 of the concentration in mol/L.

// worked examples, pIC50 included
[
  {
    "COMPOUND": "COc1cccc(NC[C@@H](F)Cn2c3ccc(Br)cc3c3cc(Br)ccc32)n1",
    "pIC50": 6.17
  },
  {
    "COMPOUND": "COc1cccc(NC[C@H](F)Cn2c3ccc(Br)cc3c3cc(Br)ccc32)n1",
    "pIC50": 6.46
  }
]

## Task Lookup: pIC50 / Translocator protein (Homo sapiens) / COc1cccc(NCC(F)Cn2c3ccc(Br)cc3c3cc(Br)ccc32)c1 (stereo not drawn)
## Result 5.70
